Where do these numbers come from? They come from a melting point compilation (Tetko et al.; mined from patent text by program, amines drawn as free bases though some values may be those of a salt).

Quantity measured: melting point

1. Nc1ccc(Cn2ncnn2)cc1 | 86 to 87 °C

Request: Quick one: give measured melting point for "COc1ccc(-c2nc(N3CCOCC3)c3c(C)c(C#N)sc3n2)cc1"
Result: 204 to 206 °C

Request: Quick one: give measured melting point for CC(C)C(S)C(=O)NC1(C(=O)NC(Cc2ccc(-c3ccc(F)cc3)cc2)C(=O)O)CCCC1 (stereo not drawn)
Result: 196 to 198 °C

###

Measured melting point of individual entries

Guide cases for melting point, answers given:
1. O=CC1=CCC(F)(C2COC(c3c(F)cccc3F)=N2)C=C1 (centres undefined) | 105 to 106 °C
2. Cc1ccc(-c2ccc(C(=O)Nc3cc4ncc(CN5CCCC5)cc4cc3C)cc2F)cc1 | 175 to 178 °C
3. CN1C(=O)N(C)C(=O)C(C(N)=O)(c2ccc(Cl)cc2)C1=O | 225 to 227 °C

Request: Quick one: give measured melting point for O=C(O)c1ccc(F)c2c1CC(N(CCCc1c[nH]c3ccc(F)cc13)C1CCC1)CO2 (centres undefined)
Result: 140 °C

Request: Quick one: give measured melting point for "Cc1ccc(S(=O)(=O)N(C)c2cc(C)cc([N+](=O)[O-])c2N)cc1"
Result: 208 °C

###

Quantity measured: melting point

1) COc1ccc(C#CC(=Nc2ccc(OC)cc2)N2CCN(Cc3ccc(C)cc3)CC2)cc1 | 107 °C
2) CCCc1nc2c(N)nc3cc(-c4cccc(C(=O)NC5CC5)c4)ccc3c2s1 | 251 to 254 °C
3) O=C(Nc1cccc2c1C(=O)c1c-2n[nH]c1-c1ccc(C(=O)NC2CN3CCC2CC3)s1)NN1CCOCC1 (stereo unspecified) | 245 to 246 °C

Request: Quick one: give measured melting point for "COCCCNc1ccc([N+](=O)[O-])cc1C"
Result: 26 to 28 °C

Request: Quick one: give measured melting point for "Cc1cc(CCc2ccc(-c3ccc(C(F)(F)F)cc3)cc2)ccc1OCC(=O)O"
Result: 174 to 176 °C

Request: Quick one: give measured melting point for "CCCCc1nc(O)cc(COC)n1"
Result: 96 to 98 °C

Request: Quick one: give measured melting point for O=[N+]([O-])c1cc(C(F)(F)F)ccc1C1(O)CC=NO1 (stereo unspecified)
Result: 122 to 123 °C

Request: Quick one: give measured melting point for "CNc1ncc2c(-c3cccc(Cl)c3)cc(-c3ccc(C(=O)O)cc3)c(O)c2n1"
Result: 291 to 296 °C

###

Quantity measured: melting point (°C)

(P) Cc1cn(C2CC(ON)C(CO)O2)c(=O)[nH]c1=O (centres undefined)
(Q) O=C(Nc1c(Cl)cncc1Cl)c1ccc(OC(F)F)c2oc3ccccc3c12
Request: Which of these two has the smaller recorded melting point: P or Q ? Give the label under which the chosen entry appears.
Result: P

###

Measured melting point of individual entries

Guide cases for melting point, answers given:
1. CNC(=S)N1CCc2ncn(C)c2C1 | 235 °C
2. CC(=O)C1CCC2C3CCC4CC(O)C(O)CC4(C)C3C(=O)CC12C (stereo not drawn) | 194 to 198 °C
3. c1csc(-c2cn([C@H]3CN4CCC3CC4)nn2)c1 | 137 °C

Request: Quick one: give measured melting point for CCn1nnc2cc3c(=O)n(C(C)Cn4ncnn4)nnc3cc2c1=O (stereo not drawn)
Result: 174 to 176 °C

Request: Quick one: give measured melting point for "O=C(c1ccc(S(=O)(=O)Cl)cc1)c1cccs1"
Result: 118 °C

Request: Quick one: give measured melting point for CC(=O)Oc1ccc(C2COc3cc(OC(C)=O)c(OC(C)=O)cc3C2)cc1 (stereo not drawn)
Result: 145 to 147 °C

Request: Quick one: give measured melting point for "O=C(NCc1ccc(Cl)cc1)c1cn(-c2ccccn2)c2oc(CCl)cc2c1=O"
Result: 224 to 227 °C

Request: Quick one: give measured melting point for CCc1nc2c(C)cc(C)nc2n1Cc1ccc(C(c2ccccc2)C(CC)C(=O)O)cc1 (stereo not drawn)
Result: 227 to 229 °C

Request: Quick one: give measured melting point for "Cc1c(CO)ncnc1N1CCCCC1"
Result: 79 to 81 °C

Request: Quick one: give measured melting point for COC(=O)CC(C#N)Cc1ccc(Cl)cc1Cl (stereo not drawn)
Result: 86 to 88 °C

Request: Quick one: give measured melting point for "CCc1cnc2c(NC(=O)c3c(Cl)cccc3Cl)cccc2c1C(C)=O"
Result: 194 to 195 °C

Request: Quick one: give measured melting point for Cc1cc(C2=C(C=CC3CC(O)CC(=O)O3)C(C)(C)CC(OC(=O)Nc3ccccc3)C2)ccc1F (stereo not drawn)
Result: 73 to 75 °C

Request: Quick one: give measured melting point for CCOC(=O)Cc1ccc(NC(=O)C(COc2ccccc2Cl)NS(=O)(=O)c2ccc(I)cc2)cc1 (racemic)
Result: 140 to 142 °C

Request: Quick one: give measured melting point for "O=C(Nc1ccc2cn[nH]c2c1)C(=O)N1CCC(Cc2ccccc2)CC1"
Result: 160 to 164 °C

Request: Quick one: give measured melting point for "CC1(C)CN(c2cccc(-c3cnc4[nH]cc(C(=O)C(C)(C)C)c4n3)c2)C1"
Result: 227 to 229 °C
